Target: P2X7 (Homo sapiens, UniProt Q99572)
Construct: expressed in transfected cells
Assay: ATP-induced YO-PRO-1 dye uptake in HEK-hP2X7 cells
Assay type: cell-based
Settings: screen for potential negative allosteric modulators; compound 10 µM injected 60 s before ATP
Square brackets hold non-standard residues; d marks the D form. Peptide text beside a SMILES is read from it. dHica = CC(C)C[C@@H](O)C(=O)O; NMeV = CN[C@H](C(=O)O)C(C)C; NMeA = CN[C@@H](C)C(=O)O; βAla = NCCC(=O)O
Would you kindly list P2X7 response (% of control) for each of these molecules?

Summary for this molecule, CC1(C)CCC[C@]2(C)C3=C(CC[C@@H]12)C(=O)OC3 : P2X7 response (% of control) is 9.72 % of control

Summary for this molecule, CC(=O)O[C@H]1C[C@]2(O)[C@@H]3CC[C@@H]4C[C@@H](O)CC[C@]4(C)[C@H]3CC[C@]2(C)[C@H]1C1=CC(=O)OC1 : P2X7 response (% of control) is 42.33 % of control

Summary for this molecule, CC[C@H](C)[C@@H]1NC(=O)[C@@H]2CCCN2C(=O)[C@@H](CC(C)C)OC(=O)CCNC(=O)[C@H](C)N(C)C(=O)[C@H](C(C)C)N(C)C1=O [Destrusin B] (cyclo([dHica]PI[NMeV][NMeA][βAla])) : P2X7 response (% of control) is 46.65 % of control

Summary for this molecule, CC1(C)C[C@]23[C@@H]4COC(=O)[C@H]2CC[C@H]1[C@@H]3CC4=O : P2X7 response (% of control) is 40.82 % of control

Summary for this molecule, COc1cc([C@@H]2c3cc4c(cc3C[C@H]3COC(=O)[C@@H]32)OCO4)cc(OC)c1OC : P2X7 response (% of control) is 30.94 % of control

Summary for this molecule, O=C(O)c1cc(O)c(O)c(OC(=O)c2cc(O)c(O)c(O)c2)c1 : P2X7 response (% of control) is 0 % of control

Summary for this molecule, COc1cc(Cc2nccc3cc(OC)c(OC)cc23)c(C(C)=O)cc1OC : P2X7 response (% of control) is 34.92 % of control

---

Target: P2X7 (Homo sapiens)
Construct: expressed in transfected cells
Sequence (Q99572 1-595): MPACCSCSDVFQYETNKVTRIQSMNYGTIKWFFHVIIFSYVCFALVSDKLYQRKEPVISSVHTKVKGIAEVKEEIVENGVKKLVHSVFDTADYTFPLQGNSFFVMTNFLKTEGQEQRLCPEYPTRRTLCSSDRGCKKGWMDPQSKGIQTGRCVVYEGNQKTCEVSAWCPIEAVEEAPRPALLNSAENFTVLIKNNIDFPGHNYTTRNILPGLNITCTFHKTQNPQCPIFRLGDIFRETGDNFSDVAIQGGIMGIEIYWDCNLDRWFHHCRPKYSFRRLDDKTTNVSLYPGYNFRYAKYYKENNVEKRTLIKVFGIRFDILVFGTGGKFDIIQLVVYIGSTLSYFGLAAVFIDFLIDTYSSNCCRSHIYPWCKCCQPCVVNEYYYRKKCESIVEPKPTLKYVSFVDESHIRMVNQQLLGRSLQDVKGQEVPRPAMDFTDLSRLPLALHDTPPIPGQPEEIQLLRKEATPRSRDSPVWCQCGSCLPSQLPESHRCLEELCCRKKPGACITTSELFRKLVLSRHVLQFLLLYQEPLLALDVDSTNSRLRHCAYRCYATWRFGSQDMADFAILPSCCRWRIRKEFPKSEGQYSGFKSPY
Experiment: ATP-induced YO-PRO-1 dye uptake in HEK-hP2X7 cells
Type: cell-based
Conditions: HEK-hP2X7, 10 min pre-treatment, ATP 1 mM; read-out: IC50 value (95% CI)
Would you kindly list pIC50 for each of these compounds?
Reminder that pIC50 is minus the log10 of a molar concentration.

Summary for this compound, COc1ccc2cc3[n+](cc2c1OC)CCc1cc2c(cc1-3)OCO2 [Berberine] : pIC50 is 5.29

Summary for this compound, O=c1c(O)c(-c2ccc(O)cc2)oc2cc(O)cc(O)c12 [Kampferol, kaempferol] : pIC50 is 4.40

Summary for this compound, O=C1CSC(=O)N1C(CCc1ccncc1)COc1ccc(-c2cccc([N+](=O)[O-])c2)cc1 (centres unmarked) [AZ11645373, reference compound] : pIC50 is 6.82

Summary for this compound, Cc1cc(O)c2c(c1)C(=O)c1cc(O)cc(O)c1C2=O [Emodin] : pIC50 is 4.26

Summary for this compound, COc1cc2ccc(=O)oc2cc1O [Scopoletin] : pIC50 is 4.40
